Assign IC50 to each entry below.
Test system: 786-O
PROTOCOL DETAILS: Cytotoxicity in vitro in the presence and absence of elastase (MTT assay)
Type: cell-based
ASSAY SETUP: 786-O cells; compound alone; 72 h incubation; read-out: IC50 without neutrophil elastase

Example cases with answers are listed next.
INSERT INTO measurements (compound, observation_type, assay_value) VALUES
  ('CCc1c2c(nc3ccccc13)-c1cc3c(c(=O)n1C2)COC(=O)[C@@]3(CC)OC(=O)[C@@H](NC(=O)[C@@H]1CCCN1C(=O)[C@H](CC(=O)O)NC(=O)CCOCCOCCOCCNC(=O)CCC(=O)Nc1nnc(S(N)(=O)=O)s1)C(C)C', 'IC50', '100 to 999 nM'),
  ('CCCNC(=O)Nc1cccc(S(=O)(=O)Nc2cccc([C@@H](CC(=O)O)NC(=O)Nc3ccc(NC(=O)NCCOCCOCCOCCC(=O)N[C@@H](CCC(=O)NCCOCCOCCOCCC(=O)N[C@@H](CC(=O)O)C(=O)N4CCC[C@H]4C(=O)N[C@H](C(=O)O[C@]4(CC)C(=O)OCc5c4cc4n(c5=O)Cc5c-4nc4ccccc4c5CC)C(C)C)C(=O)NCCOCCOCCOCCC(=O)N[C@@H](CC(=O)O)C(=O)N4CCC[C@H]4C(=O)N[C@H](C(=O)O[C@]4(CC)C(=O)OCc5c4cc4n(c5=O)Cc5c-4nc4ccccc4c5CC)C(C)C)cc3)c2)c1', 'IC50', '100 to 999 nM'),
  ('CCc1c2c(nc3ccccc13)-c1cc3c(c(=O)n1C2)COC(=O)[C@@]3(CC)OC(=O)[C@@H](NC(=O)[C@@H]1CCCN1C(=O)[C@H](CC(=O)O)NC(=O)CCOCCOCCOCCNC(=O)NC[C@H](NC(=O)CCCCNc1cc(C)ccn1)C(=O)N[C@@H](CC(=O)O)c1cc(Cl)cc(Cl)c1)C(C)C', 'IC50', '100 to 999 nM');

# batch size: 3; output IC50 per entry
1. CCc1c2c(nc3ccccc13)-c1cc3c(c(=O)n1C2)COC(=O)[C@@]3(CC)OC(=O)[C@@H](NC(=O)[C@@H]1CCCN1C(=O)[C@H](CC(=O)[O-])NC(=O)CCOCCOCCOCCNC(=O)[C@H](CCCCNC(=O)CCOCCOCCOCCNC(=O)CCC(=O)Nc1cccc2c(C(=O)NCC(=O)N3CC(F)(F)C[C@H]3C#N)ccnc12)NC(=O)CCOCCOCCOCCNC(=O)CCC(=O)Nc1cccc2c(C(=O)NCC(=O)N3CC(F)(F)C[C@H]3C#N)ccnc12)C(C)C.[Na+]
2. CC(C)[C@H](NC(=O)[C@@H]1CCCN1C(=O)[C@H](CC(=O)O)NC(=O)CCOCCOCCOCCNC(=O)NCCCC[C@H](NC(=O)N[C@@H](CCC(=O)O)C(=O)O)C(=O)O)C(=O)N=S(C)(=O)Cc1cc2nc(c1)OCCCOc1cc(F)ccc1-c1cc(ncc1F)N2 (relative stereo)
3. CC[C@@]1(OC(=O)[C@@H](NC(=O)[C@@H]2CCCN2C(=O)[C@H](CC(=O)O)NC(=O)CCOCCOCCOCCNC(=O)CCC(=O)Nc2nnc(S(N)(=O)=O)s2)C(C)C)C(=O)OCc2c1cc1n(c2=O)Cc2c-1nc1cc(F)c(C)c3c1c2[C@@H](N)CC3

Result ::
1: > 1000 nM; 2: 100 to 999 nM; 3: 100 to 999 nM

Value source: patent US20260183405A1
